# TARGET DESC: human PAH with the R408W mutation (Homo sapiens, UniProt P00439, R408W)
# Construct: expressed in transfected cells
# Sequence (P00439 whole entry R408W): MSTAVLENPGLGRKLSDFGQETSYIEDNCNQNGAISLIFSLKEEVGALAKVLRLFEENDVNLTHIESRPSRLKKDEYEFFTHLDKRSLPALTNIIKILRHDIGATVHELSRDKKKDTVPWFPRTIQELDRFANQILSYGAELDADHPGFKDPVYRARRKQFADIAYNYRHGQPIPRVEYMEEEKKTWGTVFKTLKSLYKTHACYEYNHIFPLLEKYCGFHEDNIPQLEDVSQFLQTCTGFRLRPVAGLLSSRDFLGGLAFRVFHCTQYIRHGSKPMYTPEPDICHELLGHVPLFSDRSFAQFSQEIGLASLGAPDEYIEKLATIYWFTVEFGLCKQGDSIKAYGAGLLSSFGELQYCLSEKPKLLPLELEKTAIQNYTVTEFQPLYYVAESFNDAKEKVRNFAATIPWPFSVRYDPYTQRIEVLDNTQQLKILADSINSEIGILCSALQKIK
# PROCEDURE TEXT: Cell Based Phenylalanine Flux Assay;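 also: Ten-point dose curve from 2-fold serial dilutions, run in duplicate at 0.5% DMSO final, tracer step used 20 µM sepiapterin and 800 µM labeled phenylalanine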
# MEASUREMENT SETUP: A375 cells expressing human R408W PAH; 24 hrs compound incubation; 13C-Tyrosine by LC-MS; average where tested multiple times; read-out: AC50
Entries annotated with measured AC50

For the compound CCOc1cccc2cc(C3c4nc[nH]c4CCN3C(=O)c3oc(C(C)(C)O)nc3C(F)F)nn12 (stereo in doubt) [Example 1245] , what AC50 is on record?
500 to 1000 nM

So what does the record say about AC50 for Cn1nc(C(F)F)cc1C(=O)N1CCc2[nH]cnc2[C@H]1c1cc2c(C(F)F)cccn2n1 [Example 1372] ?
< 500 nM
